meta.source: patent US20240010684A1

- system-under-test: T1, recombinant human MASP1 (amino acids 297-699, C-terminal His Tag) (human, UniProt P48740 297-699)
- T1 sequence: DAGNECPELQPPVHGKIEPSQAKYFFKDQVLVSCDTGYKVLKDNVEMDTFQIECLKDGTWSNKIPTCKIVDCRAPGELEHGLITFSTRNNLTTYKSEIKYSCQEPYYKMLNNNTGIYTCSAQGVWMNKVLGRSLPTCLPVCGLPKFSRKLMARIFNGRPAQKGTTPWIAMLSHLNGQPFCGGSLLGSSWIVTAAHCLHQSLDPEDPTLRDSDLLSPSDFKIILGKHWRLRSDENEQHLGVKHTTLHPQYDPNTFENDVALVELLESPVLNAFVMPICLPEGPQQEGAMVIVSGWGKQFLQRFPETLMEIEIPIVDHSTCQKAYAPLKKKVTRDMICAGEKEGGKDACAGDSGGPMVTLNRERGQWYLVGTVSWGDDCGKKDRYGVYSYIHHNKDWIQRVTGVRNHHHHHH
- assay-summary: cell-based or functional assay
Bridges are numbered along the chain shown (N, C = ends). Where no end group is shown, it is not given here. [ ]: non-standard residue; d: D form. Oic = O=C(O)[C@@H]1C[C@@H]2CCCC[C@@H]2N1; Trx = NC[C@H]1CC[C@H](C(=O)O)CC1; tBuAla = CC(C)(C)C[C@H](N)C(=O)O; Pen = CC(C)(S)[C@H](N)C(=O)O; 4Amb = NCc1ccc(C(=O)O)cc1; Orn = NCCC[C@H](N)C(=O)O; Dap = NC[C@H](N)C(=O)O; Ahx = NCCCCCC(=O)O
property-name: human MASP1 IC50 (nM)
Numbers only, in nM.

A selection of reference data follows.
[Ahx]AICSRSLP[Oic]I[Pen]IPE-NH2 (disulfide 4-12; lactam N-15; also: TFA salt) [Example 74: (Ahx)**-AIC+SRSLP-(Oic)-I-(Pen)+-IPE++-NH2]
14
[Ahx]ICSRSLP[Oic]I[Pen]IPE-NH2 (disulfide 3-11; lactam N-14; also: TFA salt) [Example 75: (Ahx)**-IC+SRSLP-(Oic)-I-(Pen)+-IPE++-NH2]
7.2
cyclo(ICSRS[tBuAla]PPI[Pen]IP) (disulfide 2-10; also: HCl salt) [Example 88: I**C+SRS-((tBu)A)-PPI-(Pen)+-IP** (HCl Salt)]
1000
[Dap]ICSRSLP[Oic]I[Pen]IP (lactam 1-C; disulfide 3-11; also: TFA salt) [Example 85: (Dap)++-IC+SRSLP-(Oic)-I-(Pen)+-IP**]
1000
cyclo([Ahx][Trx]ICSRS[tBuAla]PPI[Pen]IP) (disulfide 4-12; also: TFA salt) [Example 59: (Ahx)**-(TXA)-IC+SRS-((tBu)A)-PPI-(Pen)+-IP**]
11
cyclo([Ahx]ICSRS[tBuAla]PPI[Pen]I) (disulfide 3-11; also: TFA salt) [Example 52: (Ahx)**-IC+SRS-((tBu)A)-PPI-(Pen)+-I**]
7.9

Would you mind listing human MASP1 IC50 for each of the following binders?
1. KGICSRSLPPICIPD (lactam 1-C; disulfide 4-12; also: TFA salt) [Example 22: K++GIC+SRSLPPIC+IPD**]
2. cyclo([Orn]GICSRS[tBuAla]PPI[Pen]I) (disulfide 4-12; also: TFA salt) [Example 65: (Orn)**-GIC+SRS-((tBu)A)-PPI-(Pen)+-I**]

[190, 49]

Please look at the items below and tell me human MASP1 IC50 for each one, in order.
1. cyclo([Ahx][4Amb]ICSRS[tBuAla]PPI[Pen]IP) (disulfide 4-12; also: TFA salt) [Example 68: (Ahx)**-(4-(Aminomethyl)benzoic acid)-IC+SRS-((tBu)A)-PPI-(Pen)+-IP**]
2. cyclo([Ahx]GICSRS[tBuAla]PPI[Pen]IPD) (disulfide 4-12; also: TFA salt) [Example 28: (Ahx)**-GIC+SRS-((tBu)A)-PPI-(Pen)+-IPD**]

1: 6.1; 2: 19
